# Test system: HUVEC
# assay name: Cytotoxicity against HUVEC cells after 48 hrs by SRB staining assay
# Format: cell-based
# condition: human
Items are presented alongside their recorded LC50.

molecule | bound type | LC50 / µM
O=C(O)/C=C\C(=O)O.c1ccc(C2(N3CCNCC3)C3CC4CC(C3)CC2C4)cc1 (stereo unspecified) | = | 95.45
O=C(N1CCN(C2(c3ccccc3)C3CC4CC(C3)CC2C4)CC1)n1ccnc1 (stereo unspecified) | > | 100
O=C(CN1CCCCC1)N1CCN(C2(c3ccccc3)C3CC4CC(C3)CC2C4)CC1 (stereo unspecified) | = | 60.35
Fc1ccc(C2(N3CCNCC3)C3CC4CC(C3)CC2C4)cc1.O=C(O)/C=C\C(=O)O (stereo unspecified) | > | 100
O=C(CN1CCCCC1)N1CCN(C2(c3ccc(F)cc3)C3CC4CC(C3)CC2C4)CC1 (stereo unspecified) | = | 88.78
CCOC(=O)N1CCN(C2(c3ccccc3)C3CC4CC(C3)CC2C4)CC1 (stereo unspecified) | > | 100
